This collection of values is drawn from the SangsterLogP compilation.

- experiment-notes: method code RP-HPLC, from DOI: 10.1021/jm030408h, PMID: 14971904
Entries and their logP
Just the number, please.

*Q* Annotate the compound `CCCCCc1cc(O)c2c(c1)OC(C)(C)[C@@H]1CCC(C)=C[C@@H]21` with its measured logP.
*A* 6.99

*Q* Annotate the compound `CC[C@H]1OC(=O)[C@H](C)[C@@H](O[C@H]2C[C@@](C)(OC)[C@@H](O)[C@H](C)O2)[C@H](C)[C@@H](O[C@@H]2O[C@H](C)C[C@H](N(C)C)[C@H]2O)[C@](C)(O)C[C@@H](C)CN(C)[C@H](C)[C@@H](O)[C@]1(C)O` with its measured logP.
*A* 0.9

*Q* Annotate the compound `COc1ccc2c3c1O[C@H]1C(=O)CC[C@@]4(O)[C@@H](C2)N(C)CC[C@]314` with its measured logP.
*A* 0.37

*Q* Annotate the compound `COc1ccc2c3c1O[C@H]1C[C@@H](O)C=C[C@@]31CCN(C)C2` with its measured logP.
*A* 0.21

*Q* Annotate the compound CCC(C)n1ncn(-c2ccc(N3CCN(c4ccc(OC[C@H]5CO[C@](Cn6cncn6)(c6ccc(Cl)cc6Cl)O5)cc4)CC3)cc2)c1=O (stereo not given in full) with its measured logP.
*A* 5.9

*Q* Annotate the compound CN1CC(C(=O)NC2(C)OC3(O)C4CCCN4C(=O)C(Cc4ccccc4)N3C2=O)C=C2c3cccc4[nH]cc(c34)CC21 (stereo not given) with its measured logP.
*A* 4.38

*Q* Annotate the compound `C[N+](C)([O-])CCC=C1c2ccccc2CCc2ccccc21` with its measured logP.
*A* 3.14

*Q* Annotate the compound `C#CCCCC(=O)c1cc(C(C)(C)C)c(O)c(C(C)(C)C)c1` with its measured logP.
*A* 5.63

New cases:
*Q* Annotate the compound OC(CNCC(O)C1CCc2cc(F)ccc2O1)C1CCc2cc(F)ccc2O1 (stereo not given) with its measured logP.
*A* 2.76

*Q* Annotate the compound `CCc1nn(CCCN2CCN(c3cccc(Cl)c3)CC2)c(=O)n1CCOc1ccccc1` with its measured logP.
*A* 4.95
